assay: Hepatocyte clearance assay, primary human hepatocytes; format: in vitro ADME; conditions: primary human hepatocytes (cryopreserved), average value from two experiments, read-out: Human heps Clint uL/min/10^6 cells
property: hepatocyte CLint at 1 µM (µL/min/1e6 cells)

INSERT INTO measurements (compound, property, number) VALUES
  ('Cc1n[nH]c2cc(/C=C/C(=O)N[C@H]3c4ccccc4OC[C@@H]3C)ccc12 (single isomer, unassigned) [Example 65c]', 'hepatocyte CLint at 1 µM', 9.4);

###

Assay: Hepatocyte clearance assay, primary rat hepatocytes
Format: in vitro ADME
Conditions: primary rat hepatocytes (cryopreserved), average value from two experiments, read-out: Rat heps Clint uL/min/10^6 cells
Description: In vitro clearance studies were performed in primary rat and human hepatocytes (BioIVT). Vials of cryopreserved rat or human hepatocytes were thawed in a 37° C. water bath for 2 min. […] Peak areas were determined from extracted ion chromatograms. The slope value, k, was determined by linear regression of the natural logarithm of the remaining percentage of the parent drug vs. incubation time curve. The in vitro half-life (in vitro t½) was determined from the slope value: in vitro t½=0.693/k. […]
property: hepatocyte CLint at 1 µM (µL/min/1e6 cells)

INSERT INTO results (compound, property, number) VALUES
  ('Cc1n[nH]c2cc(/C=C/C(=O)N[C@H]3c4ccccc4OC[C@@H]3C)ccc12 (single isomer, unassigned) [Example 65c]', 'hepatocyte CLint at 1 µM', 37.9);

###

Each record here notes measured solubility at 2 h.
Experiment: PBS and FaSSIF solubility
Type: physicochemical
Conditions: FaSSIF, kinetic from dmso stock; Fasted state simulated intestinal fluid, 2 hr at 25° C.
Experimental: Test compounds were prepared as 10 mM stocks in DMSO and 15 μl samples transferred in duplicate into 1.5 mL glass flat bottom vials (BioTech Solutions). […] The filtrate was analysed and quantified against a standard of known concentration using LC-MS/MS. Solubility values of the test compound and control compound were calculated as follows: [Sample]=(Area ratiossample*INJ VOL STD*DFSample*[STD])/(Area ratio STD*INJ VOLSample).
property: solubility at 2 h

INSERT INTO measurements (compound, result) VALUES
  ('Cc1n[nH]c2cc(/C=C/C(=O)N[C@H]3c4ccccc4OC[C@@H]3C)ccc12 (single isomer, unassigned) [Example 65c]', '9.2 µM'),
  ('Cc1c(F)cccc1NC(=O)/C=C/c1ccc2oc(=O)[nH]c2c1', '18 µM');
